- Test system: Pepsin
- Construct: purchased Merck Millipore
- assay.overview: Protease stability in simulated gastric fluid (Pepsin-SGF, FaSSGF)
- Type: in vitro ADME
- settings: simulated gastric fluid with pepsin (Pepsin-SGF), 60 min, 1 μM peptide, 37° C., read-out: FaSSGF 60 (min), remaining percent of peptide
- Method: Studies were carried out in simulated intestinal fluid (SIF) and simulated gastric fluid (SGF) to evaluate gastric stability of the peptide compounds disclosed herein. […] To 76 μL of the Pepsin-SGF buffer, 4 μL of the 20 μM peptide stock solution was added and incubated at 37° C. […] The samples were centrifuged for 20 minutes and an aliquot of the supernatant 100 μL were transferred to a LoBind-MTP plate and analyzed by LCMS/MS. […]
Starred links: 1 amine or outer side, 2 acyl side, 3 side chain; linkers in the order of their positions; H or OH if unused. Positions of bridges follow the written chain, without caps; N, C: chain ends. Non-standard residues stand in square brackets, D forms with d. Residues, ends and D or L forms follow the SMILES beside them. *: point of attachment. X5 = CN(C(=O)CCC(=O)[*:3])[C@@H](CS[*:2])C(=O)[*:1]; X6 = O=C(CCC(=O)[*:3])N[C@@H](CS[*:2])C(=O)[*:1]; Trp(7-Me) = Cc1cccc2c(C[C@H](N)C(=O)O)c[nH]c12; X1 = O=C(CCCCN[*:3])N[C@@H](CS[*:2])C(=O)[*:1]; 2Nal = N[C@@H](Cc1ccc2ccccc2c1)C(=O)O; 3Pal = N[C@@H](Cc1cccnc1)C(=O)O; Lys(Me) = CNCCCC[C@H](N)C(=O)O; αMeL = CC(C)C[C@](C)(N)C(=O)O; Me2NCH2CH2 = CN(C)CC*; Aib = CC(C)(N)C(=O)O; Ava = NCCCCC(=O)O; Sar = CNCC(=O)O
property: remaining at 1 h, 1 µM (%)

>>> assay_result("CC(=O)NCCCC[C@@H]1NC(=O)[C@H](Cc2c[nH]c3c(C)cccc23)NC(=O)[C@H]([C@@H](C)O)NC(=O)[C@H](CC(N)=O)NC(=O)[C@@H]2CSSC[C@H](NC1=O)C(=O)N[C@@H](Cc1ccc(OCCN(C)C)cc1)C(=O)N[C@@H](Cc1ccc3ccccc3c1)C(=O)NC(C)(C)C(=O)N[C@H](C(=O)N[C@@H](CC(N)=O)C(=O)N[C@@H](Cc1c[nH]cn1)C(N)=O)CCC(=O)NCCCCC(=O)N2 [compound 20] ([Ava]CNT[Trp(7-Me)]K(Ac)CY(Me2NCH2CH2)[2Nal][Aib]ENH-NH2; disulfide 2-7; lactam N-11)")
95
>>> assay_result("CC(=O)N[C@H]1CCCCNC(=O)[C@@H]2CSSC[C@H](NC(=O)[C@H](CCC(N)=O)NC(=O)[C@H](Cc3c[nH]c4ccccc34)NC1=O)C(=O)N[C@@H](Cc1ccc(OCCN(C)C)cc1)C(=O)N[C@@H](Cc1ccc3ccccc3c1)C(=O)NC(C)(C)C(=O)N[C@H](C(=O)N[C@@H](C)C(=O)NCC(N)=O)CCC(=O)NCCCCC(=O)N2 [compound 32] (Ac-KWQCY(Me2NCH2CH2)[2Nal][Aib]EAG-NH2; linker 1-4-8 via X1)")
78
>>> assay_result("CC(=O)N[C@H]1CCCCNC(=O)[C@@H]2CSSC[C@H](NC(=O)[C@H](CCC(N)=O)NC(=O)[C@H](Cc3c[nH]c4ccccc34)NC1=O)C(=O)N[C@@H](Cc1ccc(OCCN(C)C)cc1)C(=O)N[C@@H](Cc1ccc3ccccc3c1)C(=O)N[C@@](C)(CC(C)C)C(=O)N[C@H](C(=O)N[C@@H](CC(N)=O)C(=O)NCC(N)=O)CCC(=O)NCCCCC(=O)N2 [compound 31] (Ac-KWQCY(Me2NCH2CH2)[2Nal][αMeL]ENG-NH2; linker 1-4-8 via X1)")
99
>>> assay_result("CC(=O)NCCCC[C@@H]1NC(=O)[C@H](Cc2c[nH]c3c(C)cccc23)NC(=O)[C@@H](NC(C)=O)CCCCNC(=O)[C@@H]2CSSC[C@H](NC1=O)C(=O)N[C@@H](Cc1ccc(OCCN(C)C)cc1)C(=O)N[C@@H](Cc1ccc3ccccc3c1)C(=O)NC(C)(C)C(=O)N[C@H](C(=O)N[C@@H](CC(N)=O)C(=O)N[C@@H](Cc1cccnc1)C(=O)N(C)CC(N)=O)CCCCNC(=O)CCC(=O)N2 [compound 104] (Ac-K[Trp(7-Me)]K(Ac)CY(Me2NCH2CH2)[2Nal][Aib]KN[3Pal][Sar]-NH2; linker 1-4-8 via X6)")
100
>>> assay_result("CC(=O)N[C@H]1CCCCNC(=O)[C@@H]2CSSC[C@H](NC(=O)[C@H](CC(C)C)NC(=O)[C@H](Cc3c[nH]c4c(C)cccc34)NC1=O)C(=O)N[C@@H](Cc1ccc(OCCN(C)C)cc1)C(=O)N[C@@H](Cc1ccc3ccccc3c1)C(=O)N[C@@](C)(CC(C)C)C(=O)N[C@H](C(=O)N[C@@H](C)C(=O)N[C@@H](Cc1cccnc1)C(=O)N(C)CC(N)=O)CCCCN(C)C(=O)CCC(=O)N2C [compound 70] (Ac-K[Trp(7-Me)]LCY(Me2NCH2CH2)[2Nal][αMeL][Lys(Me)]A[3Pal][Sar]-NH2; linker 1-4-8 via X5)")
78
